Recorded values, source the supplement of paper PMC13207355.

# System: E31 (patient-derived glioblastoma stem cells of proneural subtype)
# experimental_protocol: phenotypic distance (Euclidean, principal components) from DMSO controls (arbitrary units); higher = stronger morphological change;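 note: cell Painting imaging in 384-well plates, CellProfiler features reduced to at least 20 principal components, Euclidean distance versus same-plate DMSO vehicle wells (0.1% v/v), median over six images per well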
# condition_summary: 333.3 nM; exposure time: 72 h
Structures can show the parent of a compound that is named as a salt.
endpoint: phenotypic distance
Write the number on its own, no unit after it.

Consider the worked cases shown below.
> print(dat)
                                   compound  reading
1  C=CC(=O)Nc1cc(Nc2nccc(-c3cn(C)c4ccccc34)n2)c(OC)cc1N(C)CCN(C)C [Osimertinib mesylate]    0.826
2  COc1cc(N)c(Cl)cc1C(=O)NC1CCN(CCCOc2ccc(F)cc2)CC1OC (configuration not stated) [Cisapride]    0.557

What value of measured phenotypic distance is listed for C[C@@H]1C[C@@H]([C@H](O)CC2CC(=O)NC(=O)C2)C(=O)[C@@H](C)C1 [Cycloheximide] ?
2.21

What value of measured phenotypic distance is listed for CCC(C)n1ncn(-c2ccc(N3CCN(c4ccc(OCC5COC(Cn6cncn6)(c6ccc(Cl)cc6Cl)O5)cc4)CC3)cc2)c1=O (configuration not stated) ?
0.758

What value of measured phenotypic distance is listed for `C[C@@H](Oc1cc(-c2cnn(C3CCNCC3)c2)cnc1N)c1c(Cl)ccc(F)c1Cl` ?
0.762

What value of measured phenotypic distance is listed for `CCC(C)(C)C(=O)O[C@H]1C[C@@H](C)C=C2C=C[C@H](C)[C@H](CC[C@@H]3C[C@@H](O)CC(=O)O3)[C@H]21` ?
1

What value of measured phenotypic distance is listed for `O=C1c2c(O)ccc(O)c2C(=O)c2c(NCCNCCO)ccc(NCCNCCO)c21` ?
2.72

----------
Listed next: entries and their corresponding phenotypic distance.
# Test system: E34 (patient-derived glioblastoma stem cells of proneural subtype)
# experimental_protocol: phenotypic distance (Euclidean, principal components) from DMSO controls (arbitrary units); higher = stronger morphological change
# condition_summary: 12.34567901 nM; exposure time: 72 h
Structures can show the parent of a compound that is named as a salt.
Write the number on its own, no unit after it.

Consider the worked cases shown below.
molecule	target_desc	phenotypic distance
COC(=O)Nc1nc2cc(C(=O)c3cccs3)ccc2[nH]1	E34	3.27
Cc1ccc(NC(=O)c2ccc3c(c2)OCCO3)cc1NC(=O)c1ccc2nc(OCCN3CCCC3)ccc2c1	E34	1.82
OCCN1C[C@H](O)[C@@H](O)[C@H](O)[C@H]1CO	E34	0.713

What value of measured phenotypic distance is listed for COc1cc([C@@H]2c3cc4c(cc3[C@@H](O[C@@H]3O[C@@H]5CO[C@@H](C)O[C@H]5[C@H](O)[C@H]3O)[C@H]3COC(=O)[C@H]23)OCO4)cc(OC)c1O [Etoposide] ?
0.742

What value of measured phenotypic distance is listed for COc1cc2nc(N3CCN(C(=O)c4ccco4)CC3)nc(N)c2cc1OC [Prazosin hydrochloride] ?
0.593

----------
Listed next: entries and their corresponding phenotypic distance.
# Tested on: E31
# experimental_protocol: phenotypic distance (Euclidean, principal components) from DMSO controls (arbitrary units); higher = stronger morphological change
# condition_summary: 111.1 nM; exposure time: 72 h
Structures can show the parent of a compound that is named as a salt.

Consider the worked cases shown below.
molecule	phenotypic distance
C[C@H]1Oc2cc(cnc2N)-c2c(nn(C)c2C#N)CN(C)C(=O)c2ccc(F)cc21	0.874
N=C(N)c1ccc(-c2ccc(-c3ccc(C(=N)N)cc3)o2)cc1 [Furamidine dihydrochloride]	0.588
CCn1cc(C(=O)O)c(=O)c2cc(F)c(N3CCNCC3)nc21	0.528

What value of measured phenotypic distance is listed for `COc1cc2c(cc1-c1c(C)noc1C)ncc1[nH]c(=O)n([C@H](C)c3ccccn3)c12` ?
0.757

What value of measured phenotypic distance is listed for CCCCCCCCCCCCCC(=O)O[C@@H]1[C@@H](C)[C@@]2(O)[C@@H](C=C(CO)C[C@]3(O)C(=O)C(C)=C[C@@H]23)[C@@H]2C(C)(C)[C@]12OC(C)=O [Phorbol 12-myristate 13-acetate] ?
1.67

What value of measured phenotypic distance is listed for `OC[C@H]1NC[C@H](O)[C@@H](O)[C@@H]1O` ?
0.597

What value of measured phenotypic distance is listed for `COc1cc(/C=C/C(=O)N2CCC=CC2=O)cc(OC)c1OC` ?
0.471

What value of measured phenotypic distance is listed for `COc1nc(C)nc(Cl)c1NC1=NCCN1` ?
0.902

What value of measured phenotypic distance is listed for `C/C=C1\NC(=O)[C@H]2CSSCC/C=C/[C@H](CC(=O)N[C@H](C(C)C)C(=O)N2)OC(=O)[C@H](C(C)C)NC1=O` ?
8.91
